We begin with a simple list: items and their reported pKd.
assayed_system: hNTS2 (Homo sapiens, UniProt O95665)
Construct: expressed in transfected cells; host or cells: CHO-K1
Sequence (O95665 whole entry): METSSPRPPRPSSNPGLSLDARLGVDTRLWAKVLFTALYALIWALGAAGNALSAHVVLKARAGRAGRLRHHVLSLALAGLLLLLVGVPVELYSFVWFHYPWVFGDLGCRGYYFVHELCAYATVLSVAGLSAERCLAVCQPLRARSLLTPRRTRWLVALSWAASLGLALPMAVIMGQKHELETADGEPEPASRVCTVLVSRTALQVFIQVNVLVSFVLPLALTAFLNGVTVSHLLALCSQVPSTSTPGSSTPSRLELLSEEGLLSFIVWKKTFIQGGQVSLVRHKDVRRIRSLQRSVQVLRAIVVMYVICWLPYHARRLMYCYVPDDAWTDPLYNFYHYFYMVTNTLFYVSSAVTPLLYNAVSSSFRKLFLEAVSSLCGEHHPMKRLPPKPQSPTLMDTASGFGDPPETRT
test_summary: Radioligand competition binding with [3H]NT, membranes of CHO-K1 cells expressing hNTS2
Where a SMILES comes first, the peptide text is derived from it. [ ]: non-standard residue; d: D form. d1Nal = N[C@H](Cc1cccc2ccccc12)C(=O)O; NMeR = CN[C@@H](CCCNC(=N)N)C(=O)O; Tle = CC(C)(C)[C@H](N)C(=O)O
Note on units: pKd is unitless, being -log10 of a concentration expressed in mol/L.

Some entries whose results are on file:
{"compound": "CN[C@@H](CCCNC(=N)N)C(=O)N[C@@H](CCCNC(=N)N)C(=O)N1CCC[C@H]1C(=O)N[C@H](Cc1cccc2ccccc12)C(=O)N[C@H](C(=O)N[C@@H](CC(C)C)C(=O)O)C(C)(C)C [NT79] (H-[NMeR]RP[d1Nal][Tle]L-OH; C-terminus assumed)", "assayed_system": "hNTS2 (Homo sapiens, UniProt O95665)", "pKd": 7.66}
{"compound": "CC[C@H](C)[C@H](NC(=O)[C@H](Cc1ccc(O)cc1)NC(=O)[C@@H]1CCCN1C(=O)[C@H](CCCCN)NC(=O)[C@H](N)CCCNC(=N)N)C(=O)N[C@@H](CC(C)C)C(=O)O [NT15, [D-Arg^8,L-Lys^9]NT(8-13)] (H-[dR]KPYIL-OH; N-terminus and C-terminus assumed)", "assayed_system": "hNTS2 (Homo sapiens, UniProt O95665)", "pKd": 7.74}

The reported value for CC[C@H](C)[C@H](NC(=O)[C@H](Cc1ccc(O)cc1)NC(=O)[C@@H]1CCCN1C(=O)[C@@H](CCCCN)NC(=O)[C@@H](N)CCCNC(=N)N)C(=O)N[C@@H](CC(C)C)C(=O)O [NT03, [D-Lys^9]NT(8-13)] (H-R[dK]PYIL-OH; N-terminus and C-terminus assumed) in terms of pKd is 6.55

Value of pKd reported for the compound CC[C@H](C)[C@H](NC(=O)[C@H](Cc1ccc(O)cc1)NC(=O)[C@@H]1CCCN1C(=O)[C@H](CCCCN)NC(=O)[C@@H](N)CCCCN)C(=O)N[C@@H](CC(C)C)C(=O)O [NT19, [L-Lys^8,L-Lys^9]NT(8-13)] is 8.62

// pKd value for CC[C@H](C)[C@H](NC(=O)[C@H](Cc1ccc(O)cc1)NC(=O)[C@@H]1CCCN1C(=O)[C@@H](CCCCN)NC(=O)[C@H](N)CCCCN)C(=O)N[C@@H](CC(C)C)C(=O)O [NT20, [D-Lys^8,D-Lys^9]NT(8-13)] : 6.14

* * *

assayed_system: hNTS2 (Homo sapiens)
Construct: expressed in transfected cells; host or cells: CHO-K1
test_summary: Radioligand competition binding with [3H]NT, membranes of CHO-K1 cells expressing hNTS2
condition_summary: Table 2; hNTS2 over hNTS1
Where a SMILES comes first, the peptide text is derived from it. [ ]: non-standard residue; d: D form. Tle = CC(C)(C)[C@H](N)C(=O)O; dOrn = NCCC[C@@H](N)C(=O)O
endpoint: hNTS2 Selectivity

{"compound": "CC(C)C[C@H](NC(=O)[C@@H](NC(=O)[C@H](Cc1c[nH]c2ccccc12)NC(=O)[C@@H]1CCCN1C(=O)[C@H](CCCNC(=N)N)NC(=O)[C@H](N)CCCCN)C(C)(C)C)C(=O)O [NT66T, [D-Lys^8,L-Trp^11,tert-Leu^12]NT(8-13)] (H-[dK]RPW[Tle]L-OH; N-terminus and C-terminus assumed)", "assayed_system": "hNTS2 (Homo sapiens)", "hNTS2 Selectivity": 7.7}

Shift focus to the following entry.
Lab book: hNTS2 Selectivity of CC(C)C[C@H](NC(=O)[C@@H](NC(=O)[C@H](Cc1c[nH]c2ccccc12)NC(=O)[C@@H]1CCCN1C(=O)[C@@H](CCCN)NC(=O)[C@@H](N)CCCNC(=N)N)C(C)(C)C)C(=O)O [NT77T, [D-Orn^9,L-Trp^11,tert-Leu^12]NT(8-13)] (H-R[dOrn]PW[Tle]L-OH; N-terminus and C-terminus assumed) noted as 4.8

The measured values listed here are drawn from patent US20110263507A1.
